Measured half-life at 1 µM values are reported for all entries that follow.
# Target entity: CYP3A4 (Homo sapiens)
# Sequence (P08684 whole entry): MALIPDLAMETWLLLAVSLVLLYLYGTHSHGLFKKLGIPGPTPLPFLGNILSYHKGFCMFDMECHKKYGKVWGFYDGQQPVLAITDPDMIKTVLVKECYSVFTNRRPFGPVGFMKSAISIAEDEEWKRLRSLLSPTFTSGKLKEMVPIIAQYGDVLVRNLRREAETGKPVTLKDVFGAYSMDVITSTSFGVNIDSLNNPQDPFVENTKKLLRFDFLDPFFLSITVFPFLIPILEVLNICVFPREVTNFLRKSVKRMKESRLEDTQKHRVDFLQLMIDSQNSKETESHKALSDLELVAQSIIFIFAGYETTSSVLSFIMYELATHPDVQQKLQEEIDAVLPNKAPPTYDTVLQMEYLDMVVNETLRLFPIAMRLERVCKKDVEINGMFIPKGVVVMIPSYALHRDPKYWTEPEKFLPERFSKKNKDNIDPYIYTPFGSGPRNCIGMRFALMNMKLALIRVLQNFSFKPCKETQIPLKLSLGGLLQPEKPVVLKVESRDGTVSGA
# Test details: Inhibition of human CYP3A4 expressed in human supersomes assessed as half life in presence of NADPH at 1 uM using midazolam as substrate measured after 40 mins
# Format: ADME
# Cond: supersomes expressing human CYP3A4, probe midazolam

The examples below pair each entry with its known result.
{"Input smiles": "CC(C)(O)c1ccc2c(c1)C(=O)N(Cc1ccc(Cl)cc1)[C@@]2(OCC1(CO)CC1)c1ccc(Cl)cc1", "half-life at 1 µM": "< 5 min"}
{"Input smiles": "CC(C)(O)c1cc(F)c2c(c1)C(=O)N(Cc1ccc(C#N)cn1)[C@@]2(OCC1(CO)CC1)c1ccc(Cl)cc1", "half-life at 1 µM": "63 min"}
{"Input smiles": "CC(C)(O)c1cc(F)c2c(c1)C(=O)N(Cc1ccc(Cl)cn1)[C@@]2(OCC1(C(N)=O)CC1)c1ccc(Cl)cc1", "half-life at 1 µM": "> 360 min"}
{"Input smiles": "[2H]C([2H])(O)C1(C([2H])([2H])O[C@]2(c3ccc(Cl)cc3)c3ccc(C(C)(C)O)cc3C(=O)N2Cc2ccc(Cl)cc2)CC1", "half-life at 1 µM": "< 5 min"}
{"Input smiles": "[2H]C([2H])(O)C1(C([2H])([2H])O[C@]2(c3ccc(Cl)cc3)c3c(F)cc(C(C)(C)O)cc3C(=O)N2Cc2ccc(Cl)cn2)CC1", "half-life at 1 µM": "< 5 min"}

Give the measured half-life at 1 µM of CC(C)(O)c1cc(F)c2c(c1)C(=O)N(Cc1ccc(Cl)cn1)[C@@]2(OCC1(O)CC1)c1ccc(Cl)cc1 . > 360 min

Name the reported half-life at 1 µM value associated with the compound [2H]C([2H])(O)C1(C([2H])([2H])O[C@]2(c3ccc(Cl)cc3)c3c(F)cc(C(C)(C)O)cc3C(=O)N2Cc2ccc(C#N)cn2)CC1 14 min

---

# Test details: Oral bioavailability in BALB/c mouse at 5 mg/kg by HPLC analysis
# Format: ADME, organism-based
# Cond: in vivo
Consider the following compounds and their measured bioavailability readings.
Give the value, in units of %, as a plain number.

Some compounds with recorded bioavailability:
{"Input smiles": "CC(C)(O)CCO[C@]1(c2ccc(Cl)cc2)c2ccc(C(C)(C)O)cc2C(=O)N1Cc1ccc(Cl)cc1", "bioavailability (%)": 31}
{"Input smiles": "[2H]C([2H])(O)C1(C([2H])([2H])O[C@]2(c3ccc(Cl)cc3)c3c(F)cc(C(C)(C)O)cc3C(=O)N2Cc2ccc(C#N)cn2)CC1", "bioavailability (%)": 46}
{"Input smiles": "CC(C)(O)c1ccc2c(c1)C(=O)N(Cc1ccc(Cl)cc1)[C@@]2(OCC1(CO)CC1)c1ccc(Cl)cc1", "bioavailability (%)": 6.5}
{"Input smiles": "CC(C)(O)c1cc(F)c2c(c1)C(=O)N(Cc1ccc(Cl)cn1)[C@@]2(OCC1(O)CC1)c1ccc(Cl)cc1", "bioavailability (%)": 92}
{"Input smiles": "CC(C)(O)c1cc(F)c2c(c1)C(=O)N(Cc1ccc(Cl)cn1)[C@@]2(OCC1(C(N)=O)CC1)c1ccc(Cl)cc1", "bioavailability (%)": 83}
{"Input smiles": "[2H]C([2H])(O)C1(C([2H])([2H])O[C@]2(c3ccc(Cl)cc3)c3c(F)cc(C(C)(C)O)cc3C(=O)N2Cc2ccc(Cl)cn2)CC1", "bioavailability (%)": 28}
{"Input smiles": "CC(C)(O)c1cc(F)c2c(c1)C(=O)N(Cc1ccc(C#N)cn1)[C@@]2(OCC1(CO)CC1)c1ccc(Cl)cc1", "bioavailability (%)": 44}

Note: attention shifts to another entry.
GET /values?readout=bioavailability&item= [2H]C([2H])(O)C1(C([2H])([2H])O[C@]2(c3ccc(Cl)cc3)c3ccc(C(C)(C)O)cc3C(=O)N2Cc2ccc(Cl)cc2)CC1 25

// provenance: ChEMBL document CHEMBL4808170
